- Protocol Notes: Stability in apical side in human Caco-2 cells at 120 mins by permeability study
- Assay type: ADME, cell-based
- Reported Conditions: read-out: Stability
Could you mark each record T if its remaining at 2 h falls strictly under 90%, and F if it equals or exceeds it?

Compound Structure String	Classification
CC(C)[C@H](N)C(=O)OCc1cccc(NC(=N)N)c1	T
CC(C)[C@H](N)C(=O)OCCOCn1cnc2c(=O)[nH]c(N)nc21	F
NC(N)=Nc1cccc(COC(=O)[C@@H](N)Cc2ccccc2)c1	T
CC(C)[C@@H](N)C(=O)OCc1cccc(NC(=N)N)c1	F

Field: below-cutoff. Rule: recorded remaining at 2 h strictly less than 90%. Subject: CC[C@H](C)[C@H](N)C(=O)OCc1cccc(N=C(N)N)c1
F
